- System: human A2B receptors (Homo sapiens, UniProt P29275)
- Construct: expressed in transfected cells; host or cells: HEK293
- Experiment Notes: Functional human A2B receptor activity, recombinant HEK293 cells, cAMP (HTRF)
- Format: cell-based
- Condition Notes: read-out: A2B (Category)
Quantity Name: IC50

Illustrative cases are given below, each with its answer.
O=C(c1cc2c(cn1)c(-c1cnc3ccc(F)cn13)nn2CC(F)(F)F)N1[C@@H]2CC[C@H]1C[C@@H](O)C2 | < 100 nM
N#CCn1nc(-c2cnc3ccc(F)cn23)c2cnc(C(=O)N3CCCCCC3)cc21 | < 1000 nM
O=C(c1cc2c(cn1)c(-c1cnc3c(F)cc(F)cn13)nn2CC(F)(F)F)N1CCCC(O)CC1 (centres unmarked) | < 100 nM
O=C(c1cc2c(cn1)c(-c1cnn3ccccc13)nn2CC(F)(F)F)N1CCCCCC1 | < 100 nM
O=C(c1cc2c(cn1)c(-c1cnn3ccccc13)nn2CC(F)(F)F)N1CC2CCC(C1)O2 | < 1000 nM
O=C(c1cc2c(cn1)c(-c1cnc3cc(F)c(Cl)cn13)nn2CC(F)(F)F)N1CCCCCC1 | < 1000 nM
O=C(c1cc2c(cn1)c(-c1coc3ccccc13)nn2CC(F)(F)F)N1CCC(F)CC1 | < 1000 nM

Proceed to the following item.
[ask] Specify reported IC50 for the molecule shown: CCCn1nc(-c2cnc3ccc(C(N)=O)cn23)c2cnc(C(=O)N3CCCCCC3)cc21
[reply] < 1000 nM

====

- Tested on: mouse Pan T cells
- Experiment Notes: Mouse T cell IL-2 rescue from NECA (CD3/CD28-activated Pan T cells, ELISA)
- Type: cell-based
- Condition Notes: 24 h
pIC50: −log10 of the molar value.
For each entry below, report its pIC50 value.

Illustrative cases are given below, each with its answer.
O=C(c1cc2c(cn1)c(-c1coc3ccc(F)cc13)nn2CC(F)(F)F)N1CCCOCC1 [Compound 109] | > 6.00
O=C(c1cc2c(cn1)c(-c1coc3ccccc13)nn2CC(F)(F)F)N1CCOCC(O)C1 (stereo not drawn) [Compound 224] | > 6.00

[ask] Specify reported pIC50 for the compound shown: O=C(c1cc2c(cn1)c(-c1cnc3c(F)cccn13)nn2CC(F)(F)F)N1[C@@H]2CC[C@H]1C[C@@H](O)C2 [Compound 85]
[reply] > 7.00

====

- System: human A2B receptors (Homo sapiens)
- Construct: expressed in transfected cells; host or cells: HEK293
- Sequence (P29275 1-332): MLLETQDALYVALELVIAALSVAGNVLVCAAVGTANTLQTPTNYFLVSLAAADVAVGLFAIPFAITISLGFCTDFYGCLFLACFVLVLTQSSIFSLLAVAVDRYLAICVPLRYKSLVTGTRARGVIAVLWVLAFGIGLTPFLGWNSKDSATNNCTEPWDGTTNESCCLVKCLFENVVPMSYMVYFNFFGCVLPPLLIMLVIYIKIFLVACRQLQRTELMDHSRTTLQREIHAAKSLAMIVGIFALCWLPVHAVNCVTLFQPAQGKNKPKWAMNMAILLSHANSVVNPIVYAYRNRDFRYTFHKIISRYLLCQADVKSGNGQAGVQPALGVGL
- Experiment Notes: Functional human A2B receptor activity, recombinant HEK293 cells, cAMP (HTRF)
- Type: cell-based
- Condition Notes: read-out: A2B (Category)
For each entry below, report its IC50 value.

CC1(O)C2CCC1CN(C(=O)c1cc3c(cn1)c(-c1cnc4c(F)cc(F)cn14)nn3CS(C)(=O)=O)C2 (stereo not drawn) | < 100 nM
O=C(c1cc2c(cn1)c(-c1c[nH]c3ccccc13)nn2CC(F)(F)F)N1CCCOCC1 | < 1000 nM
O=C(c1cc2c(cn1)c(-c1coc3ccccc13)nn2CC(F)(F)F)N1CCCC(F)(F)C1 | < 1000 nM
CS(=O)(=O)Cn1nc(-c2cnc3ccc(F)cn23)c2cnc(C(=O)N3CCCCCC3)cc21 | < 100 nM
COCC1CCCN1C(=O)c1cc2c(cn1)c(-c1cnc3c(F)cc(F)cn13)nn2CC(F)(F)F (stereo not drawn) | < 1000 nM

Hi! Can you tell me IC50 for each of these compounds?
1. CS(=O)(=O)Cn1nc(-c2cnc3c(F)cc(F)cn23)c2cnc(C(=O)N3[C@@H]4CC[C@H]3C[C@@H](O)C4)cc21
2. O=C(c1cc2c(cn1)c(-c1coc3ccccc13)nn2CC(F)(F)F)N1CCOCC(O)C1 (stereo not drawn)
3. O=C(c1cc2c(cn1)c(-c1coc3ccccc13)nn2CCF)N1CCCOCC1
4. CS(=O)(=O)Cn1nc(-c2cnc3c(F)cc(F)cn23)c2cnc(C(=O)N3CC4CCC(C3)O4)cc21

[reply]
< 100 nM
< 100 nM
< 1000 nM
< 1000 nM
